Recorded Fold-change in IC50 (Mutant/N90D, N114D) for the following binders
# studyTarget: T1, human OX40 receptor (hOX40), residues 29-170 (human, UniProt P43489 29-170, biotinylated with biotin-NHS-LC in the competition ELISA (Table II); not biotinylated in the crystals (Tables 6 and 7))
# T1 construct: Monomeric soluble receptor fragment; also called hOX40Receptor; HOX40 receptor
# T1 sequence: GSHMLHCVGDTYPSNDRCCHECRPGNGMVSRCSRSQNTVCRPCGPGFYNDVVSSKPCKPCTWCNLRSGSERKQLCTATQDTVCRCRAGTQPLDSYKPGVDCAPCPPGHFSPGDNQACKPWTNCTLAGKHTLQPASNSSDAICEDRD
# methodDescription: competition ELISA; relative to hOX40L N90D, N114D

I have this binder here, human OX40L E123A in the N90D, N114D background, residues 51-183 (ligand, Properly assembled trimer by size exclusion chromatography) GSHMQVSHRYPRIQSIKVQFTEYKKEKGFILTSQKEDEIMKVQDNSVIINCDGFYLISLKGYFSQEVDISLHYQKDAEPLFQLKKVRSVNSLMVASLTYKDKVYLNVTTDNTSLDDFHVNGGELILIHQNPGEFCVL , and I need its recorded Fold-change in IC50 (Mutant/N90D, N114D).
3 fold

I have this binder here, human OX40L Q80A in the N90D, N114D background, residues 51-183 (ligand, Properly assembled trimer by size exclusion chromatography) GSHMQVSHRYPRIQSIKVQFTEYKKEKGFILTSAKEDEIMKVQDNSVIINCDGFYLISLKGYFSQEVDISLHYQKDEEPLFQLKKVRSVNSLMVASLTYKDKVYLNVTTDNTSLDDFHVNGGELILIHQNPGEFCVL , and I need its recorded Fold-change in IC50 (Mutant/N90D, N114D).
8.6 fold

I have this binder here, human OX40L T144A in the N90D, N114D background, residues 51-183 (ligand, Properly assembled trimer by size exclusion chromatography) GSHMQVSHRYPRIQSIKVQFTEYKKEKGFILTSQKEDEIMKVQDNSVIINCDGFYLISLKGYFSQEVDISLHYQKDEEPLFQLKKVRSVNSLMVASLAYKDKVYLNVTTDNTSLDDFHVNGGELILIHQNPGEFCVL , and I need its recorded Fold-change in IC50 (Mutant/N90D, N114D).
2.2 fold

I have this binder here, human OX40L (hOX40L), wild type, residues 51-183 (ligand, Homotrimer; also called WT; OX40 ligand) GSHMQVSHRYPRIQSIKVQFTEYKKEKGFILTSQKEDEIMKVQNNSVIINCDGFYLISLKGYFSQEVNISLHYQKDEEPLFQLKKVRSVNSLMVASLTYKDKVYLNVTTDNTSLDDFHVNGGELILIHQNPGEFCVL , and I need its recorded Fold-change in IC50 (Mutant/N90D, N114D).
2.2 fold

I have this binder here, human OX40L D162A in the N90D, N114D background, residues 51-183 (ligand, Properly assembled trimer by size exclusion chromatography) GSHMQVSHRYPRIQSIKVQFTEYKKEKGFILTSQKEDEIMKVQDNSVIINCDGFYLISLKGYFSQEVDISLHYQKDEEPLFQLKKVRSVNSLMVASLTYKDKVYLNVTTDNTSLDAFHVNGGELILIHQNPGEFCVL , and I need its recorded Fold-change in IC50 (Mutant/N90D, N114D).
6.9 fold
